Values from ChEMBL document CHEMBL1146338

test system: Erythrocyte; assay: Inhibition of AAPH-induced ram erythrocyte hemolysis at 0.0625 g/L; type: functional; conditions: Ovis aries
Label Yes when inhibition at 62.5 µg/mL is at or above 60%; otherwise label No.

INSERT INTO measurements (item_smiles, label) VALUES
  ('Cc1sc2c(Nc3ccc(C#N)cc3)cccc2c1C', 'Yes'),
  ('Cc1sc2c(Nc3cccnc3)cccc2c1C', 'Yes'),
  ('Cc1sc2c(Nc3ccccn3)cccc2c1C', 'No'),
  ('COc1cccc(Nc2cccc3c(C)c(C)sc23)c1', 'No'),
  ('COc1ccc(Nc2cccc3c(C)c(C)sc23)cc1', 'Yes');
